Give measured melting point for each item. Keep answers brief.

# count of solved cases: 8
Q: Suppose we examine the compound CC(COc1ccc(CC2SC(=O)NC2=O)cc1)N1CC(COc2ccccc2)OC1=O (stereo not given) ; what melting point value has been reported?
Result: 54 to 56 °C

Q: Suppose we examine the compound Cc1nc(Cl)c2ccccc2c1CC(=O)O ; what melting point value has been reported?
Result: 180 to 183 °C

Q: Suppose we examine the compound CCCCCCCCCCCCCCCCCCC(NC(C)=O)(C(=O)OCC)C(=O)OCC ; what melting point value has been reported?
Result: 70 to 71 °C

Q: Suppose we examine the compound CC(C)(C)c1cc(N=C2CCc3cc4c(nc32)C(=Nc2cc(C(C)(C)C)cc(C(C)(C)C)c2)CC4)cc(C(C)(C)C)c1 ; what melting point value has been reported?
Result: 177 to 183 °C

Q: Suppose we examine the compound CS(=O)(=O)C(=C1CN(C(c2ccccc2)c2ccccc2)C1)c1cccc(Cl)c1 ; what melting point value has been reported?
Result: 205 °C

Q: Suppose we examine the compound c1cncc(Nn2ccc3ccccc32)c1 ; what melting point value has been reported?
Result: 127 to 128 °C

Q: Suppose we examine the compound O=C(c1ccc(F)cc1)c1cc2ccsc2s1 ; what melting point value has been reported?
Result: 113 °C

Q: Suppose we examine the compound CC(CC(=O)O)C(=O)c1ccc(N2CCOCC2)c([N+](=O)[O-])c1 (stereo not given) ; what melting point value has been reported?
Result: 127 to 129 °C

For each entry beneath this line, provide reported melting point.
1. CS(=O)(=O)Nc1ccc([N+](=O)[O-])cc1C=C1CCCCC1
2. Fc1ccc(Nc2nc(N/N=C/c3cccc4ccccc34)nc(N3CCOCC3)n2)cc1

Result:
1. 174 to 175 °C
2. 220 °C

====

assayReadout: melting point

Q: Suppose we examine the compound CC(C#Cc1ccc(F)cc1)N(O)C(N)=O (stereo unspecified) ; what melting point value has been reported?
Result: 156 to 158 °C

For each entry beneath this line, provide reported melting point.
1. CCOCCCn1cnc(-c2ccc(F)cc2)c1-c1ccncc1
2. N#CC(C#N)=C(Cl)c1ccc(C(Cl)=C(C#N)C#N)cc1
3. COCOc1cc(OC)c(OCOC)c(CCCCCc2c(OC)c(OCOC)c(C)c(OC)c2OCOC)c1OC
4. COC(=O)c1cccc(-c2cc(CCN3CCCC3=O)c3cc(OC)ccc3c2)c1
5. Cc1cc2nc(NC(=O)NCCN3CCOCC3)sc2cc1OC(C)c1c(Cl)ccc(F)c1Cl (stereo unspecified)
6. O=C(Nc1ccc(-n2nc(C(F)(F)F)cc2C(F)(F)F)cc1)c1ccccc1Cl
7. Cc1[nH]c2ncnc(Nc3cccc(F)c3)c2c1C

Result:
1. 85 to 86 °C
2. 177 to 179 °C
3. 76 to 77 °C
4. 110 to 112 °C
5. 270 to 276 °C
6. 155 to 157 °C
7. 245 to 255 °C

For each entry beneath this line, provide reported melting point.
1. Oc1cncc(CCCOc2cccnc2Oc2cccc(Cl)c2)c1
2. O=C1NCCc2c(-c3ccsc3)[nH]c3cccc1c23
3. O=C(Nc1ccccn1)C(CC1CCCC1)c1ccc(S(=O)(=O)C(F)(F)F)cc1 (stereo unspecified)

Result:
["148 to 149 °C", "255 to 256 °C", "58 to 62 °C"]

For each entry beneath this line, provide reported melting point.
1. CCCC(=O)c1ccc(OCCCC(=O)O)c(Cl)c1Cl
2. CCNc1nc2ccc(OC(F)(F)F)cc2s1
3. O=Cc1ncc(C(O)C(F)(F)F)s1 (stereo unspecified)

Result:
["111 to 113 °C", "135 °C", "64 to 66 °C"]

For each entry beneath this line, provide reported melting point.
1. CCc1ccc(-c2ccc3c(c2)C=C(C(=O)Nc2ccc(CN(C)C4CCOCC4)cc2)CCO3)cc1
2. Cc1oc(-c2ccc(F)cc2)cc1COc1cccc(CSC(C)(C)C(=O)O)c1
3. CCCCCCCCCCCCCCCCCC(=O)Oc1nc2c(N)ncnc2n1Cc1ccccc1
4. CC(C)(C)OC(=O)c1ccc(NC2CCc3cc4nc(COC(=O)C(C)(C)C)[nH]c(=O)c4cc32)cc1 (racemic)
5. CCC(=O)c1c(OC)cccc1OC
6. O=C(O)C(=O)NCCC(F)=C(F)F

Result:
1: 181 to 182 °C; 2: 134 to 135 °C; 3: 128 to 129 °C; 4: 231 °C; 5: 43 to 45 °C; 6: 95 to 100 °C

Q: Suppose we examine the compound COc1ccc(C(=O)c2cccn2C)cc1 ; what melting point value has been reported?
Result: 66 to 68 °C

====

Give measured melting point for each item. Keep answers brief.

Q: Suppose we examine the compound CC1(C)C(=O)N(c2ccnc(NC(=O)NCc3ccccn3)c2)c2ccccc21 ; what melting point value has been reported?
Result: 191 to 192 °C

Q: Suppose we examine the compound COc1ccc(C(=O)NCCC=CCCCNC(=O)c2ccc(OC)cc2)cc1 ; what melting point value has been reported?
Result: 141 to 143 °C

Q: Suppose we examine the compound O=Cc1ccc([N+](=O)[O-])cn1 ; what melting point value has been reported?
Result: 66 to 67 °C

Q: Suppose we examine the compound CCOC(=O)C(=O)CCc1ccc(OC)c(OC)c1 ; what melting point value has been reported?
Result: 85 to 87 °C

For each entry beneath this line, provide reported melting point.
1. Cc1[nH]c(=O)cnc1-c1ccc(NC(=O)OCc2ccccc2)cc1
2. COc1cc2c(cc1OC)-c1c(-c3nc(-c4ccccc4)no3)c(-c3cc(C)c(O)c(C)c3)c(C)n1CC2
3. COc1cc2c(cc1OC)C(O)=C(c1cc(OCc3ccccc3)ccc1[N+](=O)[O-])C2=O
4. COc1cc(-c2cn(C3CCCC3)c3ncnc(N)c23)ccc1NS(=O)(=O)c1ccccc1
5. Cc1c(C)c2c(c(C)c1NC(=O)CC(C)(C)C)C(c1ccc(C(C)C)c(O)c1)CO2 (centres undefined)

Result:
1: 232 °C; 2: 191 to 193 °C; 3: 120 °C; 4: 113 to 115 °C; 5: 220 to 221 °C

====

assayReadout: melting point

For each entry beneath this line, provide reported melting point.
1. C#CCOc1cccc(C)c1S(N)(=O)=O
2. COc1ccc2cc(SCCC(=O)O)n(C)c2c1
3. O=C1NCC(c2ccccc2)SCC1N1C(=O)c2ccccc2C1=O (stereo unspecified)
4. COc1cc(/C=C/C(=O)C#CCO)cc(OC)c1OC

Result:
1. 129 °C
2. 120 to 122 °C
3. 240 to 247 °C
4. 113 to 115 °C

For each entry beneath this line, provide reported melting point.
1. CCOC(=O)C1=C(C=O)Nc2ccnc(OC(C)C)c2C1c1ccccc1C(F)(F)F (stereo unspecified)
2. C#CCON=Cc1cc(Cl)ccc1O
3. CC(C)c1nn(-c2ccc(C(F)(F)F)cn2)cc1CCO

Result:
108 to 109 °C
71 to 73 °C
74 to 75 °C

For each entry beneath this line, provide reported melting point.
1. COc1ccc(C)cc1NC(=O)Nc1ccc(C2CCN(C(=O)Nc3cc(OCCO)ccc3Cl)CC2)cc1
2. O=c1cnc2c(NC(CO)CO)nc(SCc3cccc(Cl)c3F)nc2[nH]1
3. Cc1nc2ccnc(-c3ccccc3)n2n1

Result:
["202 to 205 °C", "218 to 220 °C", "68 to 71 °C"]

Q: Suppose we examine the compound CS(=O)(=O)Nc1cc2occc(=O)c2cc1O ; what melting point value has been reported?
Result: > 250 °C

====

assayReadout: melting point

Q: Suppose we examine the compound CC(=O)NC[C@H]1CN(c2ccc(N3CCNC(=O)CC3)c(F)c2)C(=O)O1 ; what melting point value has been reported?
Result: 140 to 146 °C

Q: Suppose we examine the compound O=c1[nH]c2ccc(S(=O)CCN3CCC(O)(Cc4ccc(F)cc4)CC3)cc2o1 (centres undefined) ; what melting point value has been reported?
Result: 153 to 155 °C

Q: Suppose we examine the compound CC(C)[C@H](NC(=O)N(C)Cc1csc(C2CCCC2)n1)C(=O)N[C@@H](Cc1ccccc1)C[C@H](O)[C@H](Cc1ccccc1)NC(=O)OCc1cncs1 ; what melting point value has been reported?
Result: 70 to 71 °C

Q: Suppose we examine the compound COCCOc1cc2c(cc1C#Cc1ccccc1)NC(=O)CC(c1cccc(C#N)c1)=N2 ; what melting point value has been reported?
Result: 174 to 176 °C

Q: Suppose we examine the compound COc1ccc(C)cc1C(=O)NCCc1ccc(CC(=O)O)cc1 ; what melting point value has been reported?
Result: 148 to 150 °C

Q: Suppose we examine the compound CCOC(=O)C1CC(=O)C(N=Nc2ccc(Br)cc2)=C(O)C1 (centres undefined) ; what melting point value has been reported?
Result: 169 to 171 °C

For each entry beneath this line, provide reported melting point.
1. Cc1nc(C=NN(C)C)c2n1-c1ccc(Cl)cc1C(c1ccccc1Cl)=NC2
2. Cc1cc(Cc2cc(C(C)(C)C)cc(-n3nc4ccccc4n3)c2O)c(O)c(C(C)(C)C)c1

Result:
238 to 242 °C
175 °C

Q: Suppose we examine the compound COc1ccc(C(O)CCN2CC=C(c3ccc(Cl)cc3)CC2)c(OC)c1 (centres undefined) ; what melting point value has been reported?
Result: 112 to 114 °C
